Hello, the source for this data is patent US4027039A, in case you need it.

Reported Survivors values for the following molecules.
test system: Influenza, Ann Arbor virus; experiment: Influenza Ann Arbor in mice, oral; schedule by table; late read day 5 (Tables 15, 25, 29, 30), 6 (18, 20, 22, 23, 26, 27, 28, 54), 7 (14, 19, 21, 24, 53, 56), 8 (16, 17, 51), 9 (11, 55); format: in vivo, mouse; conditions: total dose 30 ng
Counter-ions that a name gives are not always drawn.
Measurement label: Survivors

- Molecule: "CCCC(C)=NNC(N)=S [2-pentanone, thiosemicarbazone]"
  Measurement label: "Survivors"
  Recorded number: 0
- Molecule: "CNNC [1,2-dimethylhydrazine, dihydrochloride]"
  Measurement label: "Survivors"
  Recorded number: 1
- Molecule: "NC(N)=NN=Cc1c(Cl)cccc1Cl"
  Measurement label: "Survivors"
  Recorded number: 0
- Molecule: "C=CCNC(=S)NN=C1Cc2ccccc2C1 [2-Indanone, 4-allylthiosemicarbazone]"
  Measurement label: "Survivors"
  Recorded number: 0
- Molecule: "CC(C)=NNC(N)=S [acetone, thiosemicarbazone]"
  Measurement label: "Survivors"
  Recorded number: 0
- Molecule: "CN(C)N [1,1-dimethylhydrazine]"
  Measurement label: "Survivors"
  Recorded number: 0
